# Tested on: MKN-45
# Experiment summary: Antiproliferative activity against human MKN45 cells assessed as cell viability at 10 uM after 72 hrs by MTT assay relative to control
# Assay type: functional
# Run parameters: MKN-45, 72 h, read-out: Activity
Recorded viability at 10 µM by entry

- Molecule: "CC1(C)CC[C@]2(C(=O)OCc3ccccc3)CC[C@]3(C)C(=CC[C@@H]4[C@@]5(C)CCC(OC(=O)CCCCCO[N+](=O)[O-])[C@@](C)(COC(=O)CCCCCO[N+](=O)[O-])[C@@H]5CC[C@]43C)[C@@H]2C1 (stereo partly specified)"
  Reading unit: "%"
  viability at 10 µM: 85
- Molecule: "CC1(C)CC[C@]2(C(=O)OCc3ccccc3)CC[C@]3(C)C(=CC[C@@H]4[C@@]5(C)CCC(=O)[C@@](C)(COC(=O)c6ccccc6C(=O)OCCc6ccc(OCCO[N+](=O)[O-])cc6)[C@@H]5CC[C@]43C)[C@@H]2C1"
  Reading unit: "%"
  viability at 10 µM: 89
- Molecule: "CC1(C)CC[C@]2(C(=O)OCc3ccccc3)CC[C@]3(C)C(=CC[C@@H]4[C@@]5(C)Cc6nccnc6[C@@](C)(COC(=O)CCC(=O)OCCc6ccc(OCCO[N+](=O)[O-])cc6)[C@@H]5CC[C@]43C)[C@@H]2C1"
  Reading unit: "%"
  viability at 10 µM: 93
- Molecule: "CC1(C)CC[C@]2(C(=O)OCc3ccccc3)CC[C@]3(C)C(=CC[C@@H]4[C@@]5(C)CCC(=O)[C@@](C)(COC(=O)CCC(=O)Oc6ccc(CCO[N+](=O)[O-])cc6)[C@@H]5CC[C@]43C)[C@@H]2C1"
  Reading unit: "%"
  viability at 10 µM: 100
- Molecule: "CC1(C)CC[C@]2(C(=O)OCc3ccccc3)CC[C@]3(C)C(=CC[C@@H]4[C@@]5(C)Cc6nccnc6[C@@](C)(COC(=O)CCCCO[N+](=O)[O-])[C@@H]5CC[C@]43C)[C@@H]2C1"
  Reading unit: "%"
  viability at 10 µM: 89
- Molecule: "CC1(C)CC[C@]2(C(=O)OCc3ccccc3)CC[C@]3(C)C(=CC[C@@H]4[C@@]5(C)CCC(=O)[C@@](C)(COC(=O)CCC(=O)Nc6ccc(N)cc6)[C@@H]5CC[C@]43C)[C@@H]2C1"
  Reading unit: "%"
  viability at 10 µM: 92
- Molecule: "CC1(C)CC[C@]2(C(=O)OCc3ccccc3)CC[C@]3(C)C(=CC[C@@H]4[C@@]5(C)Cc6nccnc6[C@@](C)(COC(=O)c6ccccc6C(=O)O)[C@@H]5CC[C@]43C)[C@@H]2C1"
  Reading unit: "%"
  viability at 10 µM: 84
- Molecule: "CC1(C)CC[C@]2(C(=O)OCc3ccccc3)CC[C@]3(C)C(=CC[C@@H]4[C@@]5(C)CCC(=O)[C@@](C)(COC(=O)CCCCO[N+](=O)[O-])[C@@H]5CC[C@]43C)[C@@H]2C1"
  Reading unit: "%"
  viability at 10 µM: 54
- Molecule: "CC1(C)CC[C@]2(C(=O)OCc3ccccc3)CC[C@]3(C)C(=CC[C@@H]4[C@@]5(C)CCC(OC(=O)CCCCO[N+](=O)[O-])[C@@](C)(COC(=O)CCCCO[N+](=O)[O-])[C@@H]5CC[C@]43C)[C@@H]2C1 (stereo partly specified)"
  Reading unit: "%"
  viability at 10 µM: 97
- Molecule: "CC1(C)CC[C@]2(C(=O)OCc3ccccc3)CC[C@]3(C)C(=CC[C@@H]4[C@@]5(C)CCC(=O)[C@@](C)(COC(=O)CCC(=O)Nc6ccccc6N)[C@@H]5CC[C@]43C)[C@@H]2C1"
  Reading unit: "%"
  viability at 10 µM: 99
- Molecule: "CCN/C(=N/CCCN(C)C)OC(=O)c1ccccc1C(=O)OC[C@]1(C)C(=O)CC[C@@]2(C)[C@H]1CC[C@]1(C)[C@@H]2CC=C2[C@@H]3CC(C)(C)CC[C@]3(C(=O)OCc3ccccc3)CC[C@]21C"
  Reading unit: "%"
  viability at 10 µM: 7
- Molecule: "CC1(C)CC[C@]2(C(=O)OCc3ccccc3)CC[C@]3(C)C(=CC[C@@H]4[C@@]5(C)CCC(=O)[C@@](C)(COC(=O)c6ccccc6C(=O)O)[C@@H]5CC[C@]43C)[C@@H]2C1"
  Reading unit: "%"
  viability at 10 µM: 40
- Molecule: "CC1(C)CC[C@]2(C(=O)OCc3ccccc3)CC[C@]3(C)C(=CC[C@@H]4[C@@]5(C)Cc6nccnc6[C@@](C)(CO)[C@@H]5CC[C@]43C)[C@@H]2C1"
  Reading unit: "%"
  viability at 10 µM: 77
- Molecule: "CC1(C)CC[C@]2(C(=O)OCc3ccccc3)CC[C@]3(C)C(=CC[C@@H]4[C@@]5(C)CC/C(=N\\O)[C@@](C)(CO)[C@@H]5CC[C@]43C)[C@@H]2C1"
  Reading unit: "%"
  viability at 10 µM: 64
- Molecule: "CC1(C)CC[C@]2(C(=O)OCc3ccccc3)CC[C@]3(C)C(=CC[C@@H]4[C@@]5(C)Cc6nccnc6[C@@](C)(COC(=O)CCC(=O)O)[C@@H]5CC[C@]43C)[C@@H]2C1"
  Reading unit: "%"
  viability at 10 µM: 70
- Molecule: "CC1(C)CC[C@]2(C(=O)O)CC[C@]3(C)C(=CC[C@@H]4[C@@]5(C)CC[C@H](O)[C@@](C)(CO)[C@@H]5CC[C@]43C)[C@@H]2C1 [HEDERAGENIN]"
  Reading unit: "%"
  viability at 10 µM: 75

====

# System: A549
# Experiment summary: Antiproliferative activity against human A549 cells after 72 hrs by MTT assay
# Type: functional, cell-based
# Run parameters: A549, 72 h
Experimental readout: IC50 (µM)

- Compound: "CC1(C)CC[C@]2(C(=O)O)CC[C@]3(C)C(=CC[C@@H]4[C@@]5(C)CC[C@H](O)[C@@](C)(CO)[C@@H]5CC[C@]43C)[C@@H]2C1"
  Target of assay: "A549"
  Experimental readout: "IC50"
  Relation operator: ">"
  Observed measurement: 100
- Compound: "CCN/C(=N/CCCN(C)C)OC(=O)c1ccccc1C(=O)OC[C@]1(C)C(=O)CC[C@@]2(C)[C@H]1CC[C@]1(C)[C@@H]2CC=C2[C@@H]3CC(C)(C)CC[C@]3(C(=O)OCc3ccccc3)CC[C@]21C"
  Target of assay: "A549"
  Experimental readout: "IC50"
  Relation operator: "="
  Observed measurement: 6.3

====

Each entry below carries its reported IC50.
# System: KB
# Experiment summary: Antiproliferative activity against human KB cells after 72 hrs by MTT assay
# Format: functional, cell-based

- Compound: "CC1(C)CC[C@]2(C(=O)O)CC[C@]3(C)C(=CC[C@@H]4[C@@]5(C)CC[C@H](O)[C@@](C)(CO)[C@@H]5CC[C@]43C)[C@@H]2C1 [HEDERAGENIN]"
  Reading unit: "µM"
  IC50: 54.4
- Compound: "CCN/C(=N/CCCN(C)C)OC(=O)c1ccccc1C(=O)OC[C@]1(C)C(=O)CC[C@@]2(C)[C@H]1CC[C@]1(C)[C@@H]2CC=C2[C@@H]3CC(C)(C)CC[C@]3(C(=O)OCc3ccccc3)CC[C@]21C"
  Reading unit: "µM"
  IC50: 4.75

====

# System: BGC-823
# Experiment summary: Antiproliferative activity against human BGC823 cells after 72 hrs by MTT assay
# Format: functional, cell-based
# Run parameters: BGC-823, 72 h
IC50 listing for selected compounds.

- Compound: "CC1(C)CC[C@]2(C(=O)O)CC[C@]3(C)C(=CC[C@@H]4[C@@]5(C)CC[C@H](O)[C@@](C)(CO)[C@@H]5CC[C@]43C)[C@@H]2C1 [HEDERAGENIN]"
  Reading unit: "µM"
  IC50: 52.1
- Compound: "CCN/C(=N/CCCN(C)C)OC(=O)c1ccccc1C(=O)OC[C@]1(C)C(=O)CC[C@@]2(C)[C@H]1CC[C@]1(C)[C@@H]2CC=C2[C@@H]3CC(C)(C)CC[C@]3(C(=O)OCc3ccccc3)CC[C@]21C"
  Reading unit: "µM"
  IC50: 5.15

====

Quick reference for viability at 10 µM among some compounds
# Test system: MKN-45
# Experiment summary: Antiproliferative activity against human MKN45 cells assessed as cell viability at 10 uM after 72 hrs by MTT assay relative to control
# Format: functional
# Run parameters: MKN-45, 72 h, read-out: Activity
Experimental readout: viability at 10 µM (%)

- Compound: "CC1(C)CC[C@]2(C(=O)OCc3ccccc3)CC[C@]3(C)C(=CC[C@@H]4[C@@]5(C)CCC(=O)[C@@](C)(COC(=O)CCCCCO[N+](=O)[O-])[C@@H]5CC[C@]43C)[C@@H]2C1"
  Observed measurement: 75
- Compound: "CC1(C)CC[C@]2(C(=O)OCc3ccccc3)CC[C@]3(C)C(=CC[C@@H]4[C@@]5(C)CCC(=O)[C@@](C)(COC(=O)c6ccccc6C(=O)Nc6cccc(N)c6)[C@@H]5CC[C@]43C)[C@@H]2C1"
  Observed measurement: 93
- Compound: "CC1(C)CC[C@]2(C(=O)OCc3ccccc3)CC[C@]3(C)C(=CC[C@@H]4[C@@]5(C)CCC(=O)[C@@](C)(COC(=O)CCC(=O)OCCc6ccc(OCCO[N+](=O)[O-])cc6)[C@@H]5CC[C@]43C)[C@@H]2C1"
  Observed measurement: 93
- Compound: "CC1(C)CC[C@]2(C(=O)OCc3ccccc3)CC[C@]3(C)C(=CC[C@@H]4[C@@]5(C)Cc6nccnc6[C@@](C)(COC(=O)c6ccccc6C(=O)OCCc6ccc(OCCO[N+](=O)[O-])cc6)[C@@H]5CC[C@]43C)[C@@H]2C1"
  Observed measurement: 84
- Compound: "CC1(C)CC[C@]2(C(=O)OCc3ccccc3)CC[C@]3(C)C(=CC[C@@H]4[C@@]5(C)Cc6nccnc6[C@@](C)(COC(=O)CCCCCO[N+](=O)[O-])[C@@H]5CC[C@]43C)[C@@H]2C1"
  Observed measurement: 84
- Compound: "CC1(C)CC[C@]2(C(=O)OCc3ccccc3)CC[C@]3(C)C(=CC[C@@H]4[C@@]5(C)CCC(=O)[C@@](C)(COC(=O)c6ccccc6C(=O)Oc6ccc(CCO[N+](=O)[O-])cc6)[C@@H]5CC[C@]43C)[C@@H]2C1"
  Observed measurement: 78
- Compound: "CC1(C)CC[C@]2(C(=O)OCc3ccccc3)CC[C@]3(C)C(=CC[C@@H]4[C@@]5(C)Cc6nccnc6[C@@](C)(COC(=O)CCC(=O)Oc6ccc(CCO[N+](=O)[O-])cc6)[C@@H]5CC[C@]43C)[C@@H]2C1"
  Observed measurement: 100
- Compound: "CC1(C)CC[C@]2(C(=O)OCc3ccccc3)CC[C@]3(C)C(=CC[C@@H]4[C@@]5(C)Cc6nccnc6[C@@](C)(COC(=O)c6ccccc6C(=O)Oc6ccc(CCO[N+](=O)[O-])cc6)[C@@H]5CC[C@]43C)[C@@H]2C1"
  Observed measurement: 78
- Compound: "CC1(C)CC[C@]2(C(=O)OCc3ccccc3)CC[C@]3(C)C(=CC[C@@H]4[C@@]5(C)Cc6nccnc6[C@@](C)(COC(=O)CCC(=O)Nc6ccccc6N)[C@@H]5CC[C@]43C)[C@@H]2C1"
  Observed measurement: 86
